The reader will find reported IC50 at 24 h values listed item by item below.
- MEASUREMENT PROTOCOL: Cytotoxicity assay (sulforhodamine B, SRB)
- Format: cell-based
- PROTOCOL CONDITIONS: mouse, mouse embryonic fibroblasts (MEFs; STO), 21% O2

> print(dat)
                                   compound  test.value
1  CCCCCC/C=C/C=C(\CCCCCCCC(=O)O)[N+](=O)[O-]       18 µM

Which measured IC50 at 24 h value corresponds to CCCCCCCC/C=C(\CCCCCCCC(=O)O)[N+](=O)[O-] ?
9.47 µM

Which measured IC50 at 24 h value corresponds to CCCCC/C=C\C/C(=C\CCCCCCCC(=O)O)[N+](=O)[O-] [10-NO2LA, (9E,12Z)-10-Nitro Linoleic Acid] ?
11.8 µM

Which measured IC50 at 24 h value corresponds to CCCCCCCC/C(=C\CCCCCCCC(=O)O)[N+](=O)[O-] ?
6.28 µM

Which measured IC50 at 24 h value corresponds to CCCCCCCCC(CCCCCCCCC(=O)O)[N+](=O)[O-] (centres unmarked) ?
~100 µM
